Hello, the source for this data is ChEMBL document CHEMBL1158399, in case you need it.

System name: Cholinesterase (Equus caballus, UniProt P81908)
Sequence (P81908 whole entry): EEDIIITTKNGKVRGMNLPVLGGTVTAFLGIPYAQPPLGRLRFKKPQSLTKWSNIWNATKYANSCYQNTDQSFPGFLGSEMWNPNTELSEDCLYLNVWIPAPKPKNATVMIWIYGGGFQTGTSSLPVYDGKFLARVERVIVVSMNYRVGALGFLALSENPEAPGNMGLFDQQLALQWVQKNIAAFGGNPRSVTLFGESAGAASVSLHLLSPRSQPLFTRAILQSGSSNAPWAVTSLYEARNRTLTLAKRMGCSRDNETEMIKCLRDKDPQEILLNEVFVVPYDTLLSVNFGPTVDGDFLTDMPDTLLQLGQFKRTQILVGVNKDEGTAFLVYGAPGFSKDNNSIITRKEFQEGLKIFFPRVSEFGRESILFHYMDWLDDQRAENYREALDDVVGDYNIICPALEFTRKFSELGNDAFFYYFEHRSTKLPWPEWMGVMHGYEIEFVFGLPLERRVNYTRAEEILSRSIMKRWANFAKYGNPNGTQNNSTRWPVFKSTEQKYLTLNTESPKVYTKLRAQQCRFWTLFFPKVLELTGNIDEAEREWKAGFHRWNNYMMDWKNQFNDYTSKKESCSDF
Assay protocol: Inhibition of equine serum BuChE by Ellman's method
pIC50: −log10 of the molar value.

Entry smiles | pIC50
CC[N+](C)(CC)CCCNC(=O)c1cnc2c3c(cccc13)-c1ccccc1C2=O | 5.01
CC[N+](C)(CC)CCC(=O)Nc1ccc2c(c1)C(=O)c1cccc3ccnc-2c13 | 5.28
C[N+]1(CCC(=O)Nc2ccc3c(c2)C(=O)c2cccc4ccnc-3c24)CCCCC1 | 6.22
C[N+](C)(C)CCCNC(=O)c1cnc2c3c(cccc13)-c1ccccc1C2=O | 5.57
O=C1c2ccccc2-c2cccc3ccnc1c23 | 5.40

----------
Assay protocol: Selectivity ratio of IC50 for equine serum BuChE to IC50 for electric eel AChE
Parameter measured: Ratio IC50

Entry smiles | Parameter measured | Numeric result
C[N+]1(CCNC(=O)c2cnc3c4c(cccc24)-c2ccccc2C3=O)CCCCC1 | Ratio IC50 | 16
O=C(NCCO)c1cnc2c3c(cccc13)-c1ccccc1C2=O | Ratio IC50 | 4
C[N+]1(CCCNC(=O)c2cnc3c4c(cccc24)-c2ccccc2C3=O)CCOCC1 | Ratio IC50 | 4
O=C1c2ccccc2-c2cccc3ccnc1c23 | Ratio IC50 | 0.4
CC[N+](C)(CC)CCC(=O)Nc1ccc2c(c1)C(=O)c1cccc3ccnc-2c13 | Ratio IC50 | 1980
C[N+](C)(C)CCNC(=O)c1cnc2c3c(cccc13)-c1ccccc1C2=O | Ratio IC50 | 1
C[N+]1(CCCNC(=O)c2cnc3c4c(cccc24)-c2ccccc2C3=O)CCCCC1 | Ratio IC50 | 57
O=C(NCCCO)c1cnc2c3c(cccc13)-c1ccccc1C2=O | Ratio IC50 | 4
C[N+]1(CCC(=O)Nc2ccc3c(c2)C(=O)c2cccc4ccnc-3c24)CCCCC1 | Ratio IC50 | 1250
C[N+](C)(C)CCCNC(=O)c1cnc2c3c(cccc13)-c1ccccc1C2=O | Ratio IC50 | 1
C[N+](C)(C)CCC(=O)Nc1ccc2c(c1)C(=O)c1cccc3ccnc-2c13 | Ratio IC50 | 590
CC[N+](C)(CC)CCCNC(=O)c1cnc2c3c(cccc13)-c1ccccc1C2=O | Ratio IC50 | 15
C[N+]1(CCNC(=O)c2cnc3c4c(cccc24)-c2ccccc2C3=O)CCOCC1 | Ratio IC50 | 9
CC[N+](C)(CC)CCNC(=O)c1cnc2c3c(cccc13)-c1ccccc1C2=O | Ratio IC50 | 5
